pIC50: −log10 of the molar value.
# pIC50 measurements, system: SNAP-hSPR (sepiapterin reductase, SPR) (Homo sapiens, UniProt P35270)
# Sequence (P35270 whole entry): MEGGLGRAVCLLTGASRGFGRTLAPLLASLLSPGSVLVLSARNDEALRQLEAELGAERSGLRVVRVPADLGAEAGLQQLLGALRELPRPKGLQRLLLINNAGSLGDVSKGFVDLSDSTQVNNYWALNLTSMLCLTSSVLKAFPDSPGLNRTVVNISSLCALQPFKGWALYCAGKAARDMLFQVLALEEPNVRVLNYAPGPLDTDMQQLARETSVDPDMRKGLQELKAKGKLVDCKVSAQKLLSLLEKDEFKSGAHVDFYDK

{"columns": ["molecule", "pIC50"],
 "data": [
  ["CC(=O)Nc1ccc(S(=O)(=O)N2CCN(C(=O)c3cnn(-c4nn5cccc5c(=O)[nH]4)c3C)CC2)cc1", 9.00],
  ["Cc1c(C(=O)N2CCC(C#N)(CC(F)(F)F)CC2)cnn1-c1nn2cccc2c(=O)[nH]1", 8.70],
  ["O=C(c1cnn(-c2nc3ccsc3c(=O)[nH]2)c1)N1CCC(S(=O)(=O)c2ccccc2)CC1", 8.40],
  ["Cc1c(C(=O)N2CCN(S(=O)(=O)C3CCCCC3)CC2)cnn1-c1nn2cccc2c(=O)[nH]1", 9.00],
  ["CCC1(C#N)CCN(C(=O)c2cnn(-c3nc4ccsc4c(=O)[nH]3)c2C)CC1", 8.40],
  ["Cc1c(C(=O)N2CCC(c3nc4cc(F)ccc4s3)CC2)cnn1-c1nc2c(c(=O)[nH]1)CCC2", 8.00],
  ["O=C(c1cnn(-c2nc3sccc3c(=O)[nH]2)c1)N1CCN2CCC[C@@H]2C1", 8.40],
  ["Cc1c(C(=O)N2CCN(S(=O)(=O)c3ccc(C#N)cc3)CC2)cnn1-c1nn2cccc2c(=O)[nH]1", 9.00]
]}

---

- target system: SNAP-hSPR (sepiapterin reductase, SPR) (Homo sapiens)
pIC50: −log10 of the molar value.
Where pIC50 equals or exceeds 8, the correct label is 1; where it does not, the label is -1.

{"columns": ["compound", "assigned category"],
 "data": [
  ["Cc1c(C(=O)N2CCC3(CC2)CC3C(=O)N2CCCCC2)cnn1-c1nc2c(c(=O)[nH]1)CCC2 (stereo not drawn)", 1],
  ["Cc1c(C(=O)N2CC3(CN(CC(F)(F)F)C3)C2)cnn1-c1nn2cccc2c(=O)[nH]1", 1],
  ["Cc1c(C(=O)N2CCC(C(C#N)C3CC3)CC2)cnn1-c1nn2cccc2c(=O)[nH]1 (stereo not drawn)", 1],
  ["Cc1c(C(=O)N2CCN(S(=O)(=O)c3ccc(F)cc3Cl)CC2)cnn1-c1nn2cccc2c(=O)[nH]1", 1],
  ["Cc1c(C(=O)N2CCNCC2)cnn1-c1nn2cccc2c(=O)[nH]1", -1],
  ["Cc1c(C(=O)N2CCC3(CC2)CC3C(=O)N2CCC2)cnn1-c1nn2cccc2c(=O)[nH]1 (stereo not drawn)", 1],
  ["Cc1cc(=O)[nH]c(-n2ncc(C(=O)N3CCc4ccccc4C3)c2CC(C)C)n1", -1],
  ["Cc1c(C(=O)N2CCCc3ccccc32)cnn1-c1nc2ccsc2c(=O)[nH]1", -1],
  ["Cc1c(C(=O)N2CCN(c3ncc(-c4cccc(C(F)(F)F)c4)o3)CC2)cnn1-c1nn2cccc2c(=O)[nH]1", -1],
  ["Cc1c(C(=O)N2CCC(C(F)(F)F)CC2)cnn1-c1nn2c(F)ccc2c(=O)[nH]1", 1],
  ["Cc1c(C(=O)N2CCN(C(C)C(F)(F)F)CC2)nnn1-c1nn2cccc2c(=O)[nH]1 (stereo not drawn)", 1],
  ["Cc1c(C(=O)N2CC[C@@H]2c2ccc(F)nc2)cnn1-c1nn2cccc2c(=O)[nH]1", 1],
  ["Cc1c(C(=O)N2CCC3(CC2)CC(F)C3)cnn1-c1nn2cccc2c(=O)[nH]1", 1],
  ["Cc1c(C(=O)N2CC3CCCC(C2)C3=CC(F)(F)F)cnn1-c1nn2cccc2c(=O)[nH]1", 1],
  ["Cc1c(C(=O)N2[C@H](C)CCC[C@@H]2C)cnn1-c1nc2ccsc2c(=O)[nH]1", 1],
  ["Cc1c(C(=O)N2CCN3CCC[C@@H]3C2)cnn1-c1nc2c(c(=O)[nH]1)CCC2", 1],
  ["O=C(c1cnn(-c2nc3c(c(=O)[nH]2)CCC3)c1)N1CCC(c2c[nH]c3ccccc23)CC1", 1],
  ["Cc1c(C(=O)N2CCC(c3nc(C(N)=O)cs3)CC2)cnn1-c1nc2c(c(=O)[nH]1)CCC2", 1],
  ["Cc1c(C(=O)N2CCc3c(c(C(F)(F)F)nn3C)C2)cnn1-c1nn2cccc2c(=O)[nH]1", 1],
  ["Cc1c(C(=O)N2CCN(C3CCC3)CC2)nnn1-c1nn2cccc2c(=O)[nH]1", 1],
  ["Cc1c(C(=O)N2CCN(c3ncc(-c4ccc(F)nc4)s3)CC2)cnn1-c1nn2cccc2c(=O)[nH]1", 1],
  ["CCOC(=O)c1nnn(-c2nn3cccc3c(=O)[nH]2)c1C", 1],
  ["Cc1c(C(=O)N2CCC(C(=O)N3CCC3)(C(F)(F)F)CC2)cnn1-c1nn2cccc2c(=O)[nH]1", 1],
  ["Cc1c(C(=O)N2CCN(C3CC3F)CC2)cnn1-c1nn2cccc2c(=O)[nH]1 (stereo not drawn)", 1],
  ["Cc1c(C(=O)N2CCCC2(C)C)cnn1-c1nc2ccsc2c(=O)[nH]1", -1],
  ["Cc1c(C(=O)N2CCN(C3CC3)CC2)cnn1-c1nc2c(c(=O)[nH]1)CCC2", 1],
  ["Cc1c(C(=O)N2CCC3(CC2)CC3)nnn1-c1nn2cccc2c(=O)[nH]1", 1],
  ["Cc1c(C(=O)N2CCN(CC(F)(F)F)C(C)C2)cnn1-c1nn2cccc2c(=O)[nH]1 (stereo not drawn)", 1]
]}

Values compiled from patent US9963462B2.
